Here the recorded log10(IC50) is given for each entry.
- TESTED SYSTEM: human ETA receptors (Homo sapiens, UniProt P25101)
- Construct: endogenous in cells; host or cells: TE 671 cells (ATCC HTB 139)
- Sequence (P25101 21-427): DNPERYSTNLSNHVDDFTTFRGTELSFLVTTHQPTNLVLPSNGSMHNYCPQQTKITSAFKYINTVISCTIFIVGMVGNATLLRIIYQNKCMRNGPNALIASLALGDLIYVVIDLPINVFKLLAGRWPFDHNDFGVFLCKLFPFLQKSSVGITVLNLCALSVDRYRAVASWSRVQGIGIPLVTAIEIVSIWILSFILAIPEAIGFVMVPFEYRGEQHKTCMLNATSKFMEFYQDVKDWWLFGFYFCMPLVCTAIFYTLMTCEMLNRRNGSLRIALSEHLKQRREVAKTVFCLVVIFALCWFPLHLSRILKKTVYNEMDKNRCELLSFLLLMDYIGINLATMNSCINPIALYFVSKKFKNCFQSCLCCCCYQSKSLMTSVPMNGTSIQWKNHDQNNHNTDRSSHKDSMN
- ASSAY PROCEDURE: Binding Test #1: inhibition of 125I-ET-1 binding to ETA receptors (TE 671 cell membranes)
- TEST CONTEXT: Table 1; † incubation at 24° C.; read-out: ETA
- Description: Compounds that are potential endothelin antagonists are identified by testing their ability to compete with ^125I-labeled ET-1 for binding to human ETA receptors or ETB receptors present on isolated cell membranes. The effectiveness of the test compound as an antagonist or agonist of the biological tissue response of endothelin can also be assessed by measuring the effect on endothelin induced contraction of isolated rat thoracic aortic rings. […]
Note the log scale: values are log10 of IC50 expressed in nM.

// below: answered molecules
Cc1ccc(CCc2cc(-c3ccc(C)cc3)sc2S(=O)(=O)Nc2onc(C)c2Br)cc1: 3.79
Cc1noc(NS(=O)(=O)c2ccsc2COc2ccc3c(c2)OCO3)c1Br: 2.48
Cc1ccc(OC(=O)c2sccc2S(=O)(=O)Nc2onc(C)c2Br)cc1: 5.09

Q: Provide measured log10(IC50) on human ETA receptors (Homo sapiens, UniProt P25101) for Cc1cc(C)c(NC(=O)c2sccc2S(=O)(=O)Nc2onc(C)c2Cl)c(C)c1CO please.
A: -0.40

Q: Enter measured log10(IC50), system human ETA receptors (Homo sapiens, UniProt P25101), for the molecule shown: Cc1noc(NS(=O)(=O)c2ccc(-c3cccc(N)c3)s2)c1Br
A: 3.16
